- Test system: Hep3B
- Assay: MTS cytotoxicity assay (CellTiter 96 AQueous)
- Type: cell-based
- Condition Notes: Homo sapiens, 48 h exposure
Outcome Measure: pEC50
pEC50 field: float, defined as -log10 of concentration (mol/L).

CC(C)c1cccc(C(C)C)c1N1C(=O)c2c(F)c(F)c(F)c(NC(=O)NC(=O)CCl)c2C1=O [Ac-2010] | 6.27

Next compound, please.
Query string: Provide measured pEC50 on Hep3B for CC(C)c1cccc(C(C)C)c1N1C(=O)c2c(F)c(F)c(F)c(N[C@@H]3C=CS(=O)(=O)C3)c2C1=O [Ac-915] please.
Result string: 6.12
